Tested on: Escherichia coli TOP10;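 further: peptides expressed intracellularly from a pBAD plasmid library in pooled LB shake-flask culture, induced with 0.3% L-arabinose, DNA abundance read by NGS, three biological replicates, DESeq2 with apeglm shrinkage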
TEST_METHOD_NOTES: shrunken log2 fold change of peptide-encoding DNA abundance (4.5 h post-induction vs induction); higher = less antimicrobial activity (less host growth inhibition)
SETTINGS: time post-induction: 4.5 h; library: site-saturation at positions 5, 18, 19, 20
For each record, write down the corresponding shrunken log2 fold change.
Give bare numbers.

Give shrunken log2 fold change for each of the items listed below.
1. RRIRRRPPRLPRPRPRPVHVPRP
2. RRIRGRPPRLPRPRPRPHAGPRP
3. RRIRGRPPRLPRPRPRPIWQPRP
4. RRIRPRPPRLPRPRPRPFTLPRP

1. 0.0562
2. 1.06
3. 0.349
4. -0.379

Give shrunken log2 fold change for each of the items listed below.
1. RRIRTRPPRLPRPRPRPCNTPRP
2. RRIRWRPPRLPRPRPRPGKGPRP
3. RRIRVRPPRLPRPRPRPEVAPRP
4. RRIRHRPPRLPRPRPRPEGCPRP
5. RRIRERPPRLPRPRPRPVCSPRP

-0.21
-0.0357
1.82
0.0614
-0.239

Give shrunken log2 fold change for each of the items listed below.
1. RRIRYRPPRLPRPRPRPAHNPRP
2. RRIRDRPPRLPRPRPRPTSMPRP
3. RRIRMRPPRLPRPRPRPGIHPRP

1. -0.409
2. 0.104
3. 0.142

Give shrunken log2 fold change for each of the items listed below.
1. RRIRGRPPRLPRPRPRPLKRPRP
2. RRIRGRPPRLPRPRPRPHGSPRP
3. RRIRNRPPRLPRPRPRPYGPPRP
4. RRIRSRPPRLPRPRPRPPFNPRP
5. RRIRLRPPRLPRPRPRPHIEPRP
6. RRIRKRPPRLPRPRPRPSYLPRP
7. RRIRLRPPRLPRPRPRPLMNPRP
8. RRIRTRPPRLPRPRPRPCIPPRP

1: 0.216; 2: -0.0658; 3: -0.00663; 4: -0.298; 5: -0.0305; 6: -0.144; 7: -0.253; 8: -1.3

Give shrunken log2 fold change for each of the items listed below.
1. RRIRLRPPRLPRPRPRPAYCPRP
2. RRIRNRPPRLPRPRPRPEYDPRP
3. RRIRQRPPRLPRPRPRPEGRPRP
4. RRIRFRPPRLPRPRPRPRTTPRP
5. RRIRMRPPRLPRPRPRPTMGPRP

[-0.088, -0.0369, 0.00666, 0.299, 0.253]

Give shrunken log2 fold change for each of the items listed below.
1. RRIRVRPPRLPRPRPRPLNFPRP
2. RRIRMRPPRLPRPRPRPMNTPRP
3. RRIRYRPPRLPRPRPRPLHYPRP
4. RRIRARPPRLPRPRPRPRHCPRP
5. RRIRNRPPRLPRPRPRPAQTPRP
6. RRIRTRPPRLPRPRPRPPAIPRP

1. -0.249
2. 0.206
3. -1.53
4. -0.0733
5. -0.0137
6. 0.0134

What value of shrunken log2 fold change has been recorded for this entry: "RRIRFRPPRLPRPRPRPSWAPRP" -0.308
